Answer each item with its documented microsomal CLint.
- assay.overview: Intrinsic clearance in mouse gut microsomes in presence of NADPH
- Type: ADME, Microsome

smiles.str | microsomal CLint
O=C(c1ccc(OCCN2CCCCC2)cc1)c1c(-c2ccc(O)cc2)sc2cc(O)ccc12 | < 6 µL/min/mg
COc1ccc(OC(F)(F)F)cc1Cn1c(C(=O)NCC(C)(C)CO)cc2cc(C#N)ccc21 | < 6 µL/min/mg

# next compound below
Determine from records and report microsomal CLint for Cc1ccc(C(F)(F)F)cc1Cn1c(C(=O)NCCC(C)(C)O)cc2cc(C#N)ccc21
< 6 µL/min/mg

###

- assay.overview: Intrinsic clearance in human liver microsomes in presence of NADPH
- Type: ADME, Microsome
Provide the reported microsomal CLint of each item.
One number for each entry, in µL/min/mg.

# batch size: 4; output microsomal CLint per entry
1. COc1ccc(C(F)(F)F)cc1Cn1c(C(=O)NCCC2(O)CCC2)cc2cc(C#N)ccc21
2. CC(O)C1(CNC(=O)c2cc3cc(C#N)ccc3n2Cc2cccc(OC(F)(F)F)c2)CCCC1 (centres undefined)
3. O=C(c1ccc(OCCN2CCCCC2)cc1)c1c(-c2ccc(O)cc2)sc2cc(O)ccc12
4. Cc1ccc(C(F)(F)F)cc1Cn1c(C(=O)NCC(C)(C)CO)cc2cc(C#N)ccc21

1. 88
2. 505
3. 79
4. 180

###

For each of the compounds below, state its microsomal CLint.
- assay.overview: Intrinsic clearance in human liver microsomes in presence of UGT
- Assay type: ADME, Microsome

compound | microsomal CLint
COc1ccc(Br)cc1Cn1c(C(=O)NCCCO)cc2cc(C#N)ccc21 | < 6 µL/min/mg
COc1ccc(Br)cc1Cn1c(C(=O)NCC(C)(C)CO)cc2cc(C#N)ccc21 | 23 µL/min/mg
CC(C)(O)CCNC(=O)c1cc2cc(C#N)ccc2n1Cc1cccc(OC(F)(F)F)c1 | < 6 µL/min/mg
Cc1ccc(C(F)(F)F)cc1Cn1c(C(=O)NCCC(C)(C)O)cc2cc(C#N)ccc21 | < 6 µL/min/mg
COc1ccc(C(F)(F)F)cc1Cn1c(C(=O)NCC2(CO)CC2)cc2cc(C#N)ccc21 | 7 µL/min/mg

Give microsomal CLint for each listed item.
1. N#Cc1ccc2c(c1)cc(C(=O)NCCC1(O)CCC1)n2Cc1cccc(OC(F)(F)F)c1
2. COc1ccc(C(C)(C)C)cc1Cn1c(C(=O)NCC2(CO)CC2)cc2cc(C#N)ccc21
3. COc1ccc(C(F)(F)F)cc1Cn1c(C(=O)NCC(C)(C)O)cc2cc(C#N)ccc21
4. COc1ccc(C)cc1Cn1c(C(=O)NCC(C)(C)CO)cc2cc(C#N)ccc21
5. COc1ccc(OC(F)(F)F)cc1Cn1c(C(=O)NCC2(CO)CC2)cc2cc(C#N)ccc21
6. CC(O)C1(CNC(=O)c2cc3cc(C#N)ccc3n2Cc2cccc(OC(F)(F)F)c2)CCCC1 (stereo not given)
7. Cc1c(C(=O)NN2CCCCC2)nn(-c2ccc(Cl)cc2Cl)c1-c1ccc(Cl)cc1
8. COc1ccc(Cl)cc1Cn1c(C(=O)NCC(C)(C)CO)cc2cc(C#N)ccc21

1. < 6 µL/min/mg
2. < 6 µL/min/mg
3. < 6 µL/min/mg
4. 23 µL/min/mg
5. 18 µL/min/mg
6. 9 µL/min/mg
7. < 6 µL/min/mg
8. 10 µL/min/mg

Quick batch: microsomal CLint for everything below.
1. O=C(c1ccc(OCCN2CCCCC2)cc1)c1c(-c2ccc(O)cc2)sc2cc(O)ccc12
2. Cc1ccc(Cl)cc1Cn1c(C(=O)NCC(C)(C)CO)cc2cc(C#N)ccc21

["24 µL/min/mg", "23 µL/min/mg"]

###

For each record, write down the corresponding microsomal CLint.
- assay.overview: Intrinsic clearance in human gut microsomes in presence of NADPH
- Type: ADME, Microsome

Hey, quick one: what's microsomal CLint for each of these?
1. COc1ccc(C(F)(F)F)cc1Cn1c(C(=O)NCCC2(O)CCC2)cc2cc(C#N)ccc21
2. COc1ccc(Cl)cc1Cn1c(C(=O)NCC(C)(C)CO)cc2cc(C#N)ccc21

< 6 µL/min/mg
< 6 µL/min/mg

Fill in microsomal CLint for each of the 3 compounds listed.
1. COc1ccc(Br)cc1Cn1c(C(=O)NCC(C)(C)CO)cc2cc(C#N)ccc21
2. CC(C)(CO)CNC(=O)c1cc2cc(C#N)ccc2n1Cc1cc(Cl)cc(Cl)c1
3. CCCOc1cccc(Cn2c(C(=O)NCC(C)(C)CO)cc3cc(C#N)ccc32)c1

< 6 µL/min/mg
< 6 µL/min/mg
13 µL/min/mg

###

- assay.overview: Intrinsic clearance in human liver microsomes in presence of UGT
- Assay type: ADME, Microsome
Provide the reported microsomal CLint of each item.
Answers are plain numbers, in µL/min/mg.

Reference set (3 entries):
smiles.str | microsomal CLint / µL/min/mg
CCOc1ccc(OC(F)(F)F)cc1Cn1c(C(=O)NCC(C)(C)CO)cc2cc(C#N)ccc21 | 20
N#Cc1ccc2c(c1)cc(C(=O)NCCC(O)(C(F)(F)F)C(F)(F)F)n2Cc1cccc(OC(F)(F)F)c1 | 24
CC(C)(CO)CNC(=O)c1cc2cc(C#N)ccc2n1Cc1cc(Cl)cc(Cl)c1 | 22

State, in one line, measured microsomal CLint of Cc1ccc(C)c(Cn2c(C(=O)NCC(C)(C)CO)cc3cc(C#N)ccc32)c1
29

###

- assay.overview: clinical
- condition: human, in vivo
recorded.metric: bioavailability (%)
One number for each entry, in %.

Specify reported bioavailability for the compound shown: O=C(c1ccc(OCCN2CCCCC2)cc1)c1c(-c2ccc(O)cc2)sc2cc(O)ccc12 [RALOXIFENE]
2

###

- assay.overview: Intrinsic clearance in human gut microsomes in presence of UGT
- Type: ADME, Microsome
recorded.metric: microsomal CLint (µL/min/mg)
Numbers only, in µL/min/mg.

Please review the following examples before continuing.
smiles.str | unit.text | microsomal CLint
CC(C)(CO)CNC(=O)c1cc2cc(C#N)ccc2n1Cc1cccc(OC(F)(F)F)c1 | µL/min/mg | 136
CC(C)(CO)CNC(=O)c1cc2cc(C#N)ccc2n1Cc1cc(Cl)cc(Cl)c1 | µL/min/mg | 98
COc1ccc(C(F)(F)F)cc1Cn1c(C(=O)NCC2(CO)CC2)cc2cc(C#N)ccc21 | µL/min/mg | 49
COc1ccc(Br)cc1Cn1c(C(=O)NCC(C)(C)CO)cc2cc(C#N)ccc21 | µL/min/mg | 94
CCOc1ccc(OC(F)(F)F)cc1Cn1c(C(=O)NCC(C)(C)CO)cc2cc(C#N)ccc21 | µL/min/mg | 103
Cc1ccc(C(F)(F)F)cc1Cn1c(C(=O)NCC(C)(C)CO)cc2cc(C#N)ccc21 | µL/min/mg | 102
COc1ccc(OC(F)(F)F)cc1Cn1c(C(=O)NCC(C)(C)CO)cc2cc(C#N)ccc21 | µL/min/mg | 68
Cc1ccc(Cl)cc1Cn1c(C(=O)NCC(C)(C)CO)cc2cc(C#N)ccc21 | µL/min/mg | 124

Hi, could you look up microsomal CLint for each item in my list?
1. COc1ccc(OC(F)(F)F)cc1Cn1c(C(=O)NCC(C)(C)O)cc2cc(C#N)ccc21
2. Cc1ccc(F)cc1Cn1c(C(=O)NCC2(CO)CCC2)cc2cc(C#N)ccc21
3. COc1ccc(Cl)cc1Cn1c(C(=O)NCC2(CO)CCC2)cc2cc(C#N)ccc21
4. O=C(c1ccc(OCCN2CCCCC2)cc1)c1c(-c2ccc(O)cc2)sc2cc(O)ccc12
5. COc1ccc(C(C)(C)C)cc1Cn1c(C(=O)NCC2(CO)CC2)cc2cc(C#N)ccc21

1. 8
2. 175
3. 179
4. 346
5. 26

Please state, for each entry, its recorded microsomal CLint.
1. CC(C)(O)CCNC(=O)c1cc2cc(C#N)ccc2n1Cc1cccc(OC(F)(F)F)c1
2. CCCOc1cccc(Cn2c(C(=O)NCC(C)(C)CO)cc3cc(C#N)ccc32)c1
3. COc1ccc(OC(F)(F)F)cc1Cn1c(C(=O)NCC2(CO)CC2)cc2cc(C#N)ccc21

[9, 45, 51]

###

- assay.overview: Intrinsic clearance in human liver microsomes in presence of NADPH
- Assay type: ADME, Microsome
So I've got a bunch of molecules here, and I need their log10(microsomal CLint) values.
Scale: decimal log of microsomal CLint, microsomal CLint in µL/min/mg.

Answered examples (3):
smiles.str | quantitative.readout
COc1ccc(C(F)(F)F)cc1Cn1c(C(=O)NCC(C)(C)O)cc2cc(C#N)ccc21 | 0.85
N#Cc1ccc2c(c1)cc(C(=O)NCCC1(O)CCC1)n2Cc1cccc(OC(F)(F)F)c1 | 1.89
CC(C)(O)CCNC(=O)c1cc2cc(C#N)ccc2n1Cc1cccc(OC(F)(F)F)c1 | 0.95

I need log10(microsomal CLint) for every entry listed below, if you could help.
1. COc1ccc(Br)cc1Cn1c(C(=O)NCCCO)cc2cc(C#N)ccc21
2. COc1ccc(C(C)(C)C)cc1Cn1c(C(=O)NCC2(CO)CC2)cc2cc(C#N)ccc21

1: 1.61; 2: 2.27
